Target: Tyrosine-protein kinase Fgr (Homo sapiens)
Sequence (P09769 whole entry): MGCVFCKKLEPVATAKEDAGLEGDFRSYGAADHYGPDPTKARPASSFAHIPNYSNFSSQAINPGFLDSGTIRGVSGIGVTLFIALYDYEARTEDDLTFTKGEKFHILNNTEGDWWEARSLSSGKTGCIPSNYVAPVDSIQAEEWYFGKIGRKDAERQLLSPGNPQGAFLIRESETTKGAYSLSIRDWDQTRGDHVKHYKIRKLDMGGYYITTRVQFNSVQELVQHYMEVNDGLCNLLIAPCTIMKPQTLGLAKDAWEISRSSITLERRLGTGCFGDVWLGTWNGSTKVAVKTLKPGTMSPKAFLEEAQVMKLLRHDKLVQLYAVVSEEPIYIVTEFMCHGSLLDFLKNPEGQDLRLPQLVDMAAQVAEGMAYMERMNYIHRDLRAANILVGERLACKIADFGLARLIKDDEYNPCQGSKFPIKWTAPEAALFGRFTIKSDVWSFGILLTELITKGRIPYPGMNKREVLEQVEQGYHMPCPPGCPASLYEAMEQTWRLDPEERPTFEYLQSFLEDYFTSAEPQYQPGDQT
Assay: Inhibition of recombinant human FGR (2 to end residues) using poly(Glu, Tyr) 4:1 as substrate incubated for 40 mins in presence of [gamma33P]ATP by scintillation counting method
pIC50: −log10 of the molar value.

# TEST SMILES, pIC50
data = [
    ("C=CC(=O)N1CC[C@@H](NC(=O)c2sc3nccc4c3c2NC(=O)N4c2ccc(Oc3ccccc3)cc2C)C1", 5.32),
]

====

Molecular target: Tyrosine-protein kinase BTK (Homo sapiens, UniProt Q06187)
Sequence (Q06187 whole entry): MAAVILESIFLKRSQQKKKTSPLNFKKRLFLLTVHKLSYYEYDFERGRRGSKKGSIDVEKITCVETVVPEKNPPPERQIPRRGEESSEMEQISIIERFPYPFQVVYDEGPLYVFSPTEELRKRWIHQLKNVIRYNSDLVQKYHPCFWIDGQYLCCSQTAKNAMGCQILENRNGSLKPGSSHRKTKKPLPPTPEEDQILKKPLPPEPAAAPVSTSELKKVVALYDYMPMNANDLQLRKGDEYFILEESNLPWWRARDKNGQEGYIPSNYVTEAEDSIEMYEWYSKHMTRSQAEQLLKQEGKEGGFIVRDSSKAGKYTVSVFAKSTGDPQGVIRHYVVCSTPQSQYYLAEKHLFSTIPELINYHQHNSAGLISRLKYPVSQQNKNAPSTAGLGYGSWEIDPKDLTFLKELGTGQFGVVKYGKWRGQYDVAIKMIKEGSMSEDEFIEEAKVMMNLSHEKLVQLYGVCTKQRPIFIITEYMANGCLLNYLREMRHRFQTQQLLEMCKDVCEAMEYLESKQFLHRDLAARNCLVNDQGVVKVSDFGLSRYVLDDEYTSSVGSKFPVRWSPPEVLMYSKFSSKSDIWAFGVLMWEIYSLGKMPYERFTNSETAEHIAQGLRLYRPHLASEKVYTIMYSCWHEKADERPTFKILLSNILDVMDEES
Test: Inhibition of recombinant human BTK using KVEKIGEGTYGVVYK as substrate incubated for 40 mins in presence of [gamma33P]ATP by scintillation counting method
pIC50: −log10 of the molar value.

# TEST SMILES, pIC50
rows = [
    ("C=CC(=O)N1CC[C@@H](NC(=O)c2sc3nccc4c3c2NC(=O)N4c2ccc(Oc3ccccc3)cc2C)C1", 6.85),
]
